Molecular target: human EGF-R (Homo sapiens)
Construct: packaging line GP+E86)
Sequence (P00533 25-1210): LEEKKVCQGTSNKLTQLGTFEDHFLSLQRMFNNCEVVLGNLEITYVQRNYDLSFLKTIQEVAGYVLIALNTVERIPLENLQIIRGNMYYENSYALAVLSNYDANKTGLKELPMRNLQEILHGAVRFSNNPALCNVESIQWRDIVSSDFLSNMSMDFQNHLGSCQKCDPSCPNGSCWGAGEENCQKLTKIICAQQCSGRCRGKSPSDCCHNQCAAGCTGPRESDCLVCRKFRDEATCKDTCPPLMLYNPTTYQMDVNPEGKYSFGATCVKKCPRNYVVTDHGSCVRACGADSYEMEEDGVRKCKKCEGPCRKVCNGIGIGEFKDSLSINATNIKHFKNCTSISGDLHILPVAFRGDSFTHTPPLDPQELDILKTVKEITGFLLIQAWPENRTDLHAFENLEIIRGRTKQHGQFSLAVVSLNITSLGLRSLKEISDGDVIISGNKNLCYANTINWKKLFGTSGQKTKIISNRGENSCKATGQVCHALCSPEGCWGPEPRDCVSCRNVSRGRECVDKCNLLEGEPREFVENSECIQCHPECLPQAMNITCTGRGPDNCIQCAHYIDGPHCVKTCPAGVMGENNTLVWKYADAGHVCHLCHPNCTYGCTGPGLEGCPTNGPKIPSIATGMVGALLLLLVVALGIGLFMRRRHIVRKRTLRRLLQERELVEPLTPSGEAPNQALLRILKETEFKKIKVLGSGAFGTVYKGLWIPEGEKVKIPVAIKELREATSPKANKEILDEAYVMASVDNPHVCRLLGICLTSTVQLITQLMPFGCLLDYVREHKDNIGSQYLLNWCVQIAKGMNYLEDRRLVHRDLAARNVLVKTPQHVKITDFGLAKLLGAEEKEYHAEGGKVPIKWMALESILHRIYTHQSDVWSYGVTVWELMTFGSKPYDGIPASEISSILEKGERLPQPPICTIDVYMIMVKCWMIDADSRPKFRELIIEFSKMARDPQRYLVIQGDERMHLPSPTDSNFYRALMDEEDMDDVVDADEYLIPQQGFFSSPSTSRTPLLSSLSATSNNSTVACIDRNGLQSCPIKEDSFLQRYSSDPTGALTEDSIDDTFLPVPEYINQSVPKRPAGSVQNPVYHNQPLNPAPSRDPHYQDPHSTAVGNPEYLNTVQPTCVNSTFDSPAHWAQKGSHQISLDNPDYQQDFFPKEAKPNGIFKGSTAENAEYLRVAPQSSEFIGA
Assay: Inhibition of EGF-dependent proliferation of F/L-HERc cells (Cell Titer 96 assay)
Conditions: F/L-HERc cells (murine IL-3-dependent line expressing human EGF-R), stimulated with EGF 20 ng/ml, 48 hours at 37° C.
Experimental: A cell line of murine origin dependent on interleukin-3-(IL-3) which was genetically modified to express functional human EGF-R was used here. […] In order to determine the inhibitory activity of the compounds according to the invention the relative cell number was measured in O.D. units using the Cell Titer 96™ Aqueous Non-Radioactive Cell Proliferation Assay (Promega). […]
MEASURE: pIC50
Give bare numbers, as −log10 of the molar value.

The examples below pair each entry with its known result.
INSERT INTO measurements (input_smiles, system_under_test, measured) VALUES
  ('C[C@H]1CN(CC=CC(=O)Nc2cc3c(Nc4ccc(F)c(Cl)c4)ncnc3cc2OCC2CC2)CC(=O)O1', 'human EGF-R (Homo sapiens)', 7.82),
  ('CN(CC=CC(=O)Nc1cc2c(Nc3ccc(F)c(Cl)c3)ncnc2cc1OCC1CC1)CC1OCCO1', 'human EGF-R (Homo sapiens)', 10.70);

Moving on to another compound below.
// query # assay system human EGF-R (Homo sapiens): give pIC50 of "C[C@@H]1CN(CC=CC(=O)Nc2cc3c(Nc4ccc(F)c(Cl)c4)ncnc3cc2OCC2CC2)CC(=O)O1"
// result 8.05

====

Exercise: for every item that follows, state its recorded melting point.
Give bare numbers, in °C.

The examples below pair each entry with its known result.
INSERT INTO results (input_smiles, measure, measured) VALUES
  ('C[C@H]1C(=O)OCCN1CC=CC(=O)Nc1cc2c(Nc3ccc(F)c(Cl)c3)ncnc2cc1OCC1CC1', 'melting point', 182),
  ('CN(CC=CC(=O)Nc1cc2c(Nc3ccc(F)c(Cl)c3)ncnc2cc1OCC1CC1)CC1OCCO1', 'melting point', 121),
  ('C[C@@H]1CN(CC=CC(=O)Nc2cc3c(Nc4ccc(F)c(Cl)c4)ncnc3cc2OCC2CCOCC2)CC(=O)O1', 'melting point', 196);

// query Supply melting point value. Item: "C[C@@H]1CN(CC=CC(=O)Nc2cc3c(Nc4ccc(F)c(Cl)c4)ncnc3cc2O[C@@H]2CCOC2)CC(=O)O1"
// result 230
